tested on: C57bl/6J Mice; assay: GPR120 C57bl6 mouse IPGTT; assay type: in vivo; details: 1 mg/kg; male C57bl/6J mice; dosed 30 minutes prior to glucose (IP) 1.5 g/kg
Parameter C57 IPGTT, Dose Response Results: see the listing below.
Your answer should be a plain number; it is taken to be in %.

Smiles Code: Cc1ccc(C2=C(COc3ccc(CCC(=O)O)c(C)c3C)CCC2)cn1
Measurement Unit: %
C57 IPGTT, Dose Response Results: 13

Smiles Code: CCc1ccc(C2=C(COc3ccc(CCC(=O)O)c(C)c3C)CCC2)cc1
Measurement Unit: %
C57 IPGTT, Dose Response Results: 15

q: Let me know recorded C57 IPGTT, Dose Response Results for `Cc1cc(CCC(=O)O)ccc1OCC1=C(c2ccc(Cl)cc2)CCCC1` , thanks.
a: 23

q: Let me know recorded C57 IPGTT, Dose Response Results for `Cc1cc(CCC(=O)O)ccc1OCC1=C(c2ccc(Cl)cc2)CCC1` , thanks.
a: 10

----------
target: Human GPR120 short form (Homo sapiens, UniProt Q5NUL3); construct: expressed in transfected cells; assay: Human GPR120 calcium flux assay, Procedure Calcium B (4200 cells/well); assay type: cell-based
Sequence (Q5NUL3 whole entry): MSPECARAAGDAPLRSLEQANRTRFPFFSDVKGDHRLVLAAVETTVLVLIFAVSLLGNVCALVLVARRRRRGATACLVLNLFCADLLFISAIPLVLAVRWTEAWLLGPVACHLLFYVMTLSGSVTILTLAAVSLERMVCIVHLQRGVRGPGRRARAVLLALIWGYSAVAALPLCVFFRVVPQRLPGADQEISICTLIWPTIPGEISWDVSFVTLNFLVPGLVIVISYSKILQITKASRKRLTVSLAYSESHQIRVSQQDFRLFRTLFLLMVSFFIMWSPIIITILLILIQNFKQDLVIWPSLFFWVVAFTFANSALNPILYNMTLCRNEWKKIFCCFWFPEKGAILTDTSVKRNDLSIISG
Property Measured: pEC50
Schema: pEC50 number; meaning minus log10 of the concentration expressed in molar units.

Compound: Cc1cc(OCC2=C(c3ccccc3)C(C)CC2)c(F)cc1CCC(=O)O (stereo not drawn)
pEC50: 5.97

Compound: Cc1c(CCC(=O)O)ccc(OCC2=C(c3ccc(Br)cc3)CCC2)c1C
pEC50: 7.43

Compound: Cc1ccc(C2=C(COc3ccc(CCC(=O)O)c(C)c3C)CCC2)cc1[N+](=O)[O-]
pEC50: 6.07

Compound: CCCCC1=C(COc2ccc(CCC(=O)O)cc2)CCC1
pEC50: 6.30

Compound: CCCC1=C(COc2ccc(CCC(=O)O)c(Cl)c2)CCCC1
pEC50: 5.62

q: Let me know recorded pEC50 for `O=C(O)CCc1ccc(OCC2=C(C3CCCC3)CCC2)cc1Cl` , thanks.
a: 6.59

q: Let me know recorded pEC50 for `Cc1c(CCC(=O)O)ccc(OCC2=C(c3ccccc3Cl)CCCC2)c1C` , thanks.
a: 5.90

q: Let me know recorded pEC50 for `O=C(O)CCc1ccc(OCC2=C(C3CCCC3)CC(F)(F)C2)cc1F` , thanks.
a: 6.90

----------
target: Human GPR120 short form (Homo sapiens, UniProt Q5NUL3); construct: expressed in transfected cells; assay: Human GPR120 calcium flux assay, Procedure Calcium A (2500 cells/well); format: cell-based
pEC50: −log10 of the molar value.
Is pEC50 at least 6? Then label 1. If not, label 0.

Compound: O=C(O)CCc1cc(F)c(OCC2=C(c3ccc(Cl)cc3)CCC2)c(F)c1 [Compound 60]
Qualitative Label: label 1
--
Compound: Cc1c(CCC(=O)O)ccc(OCC2=C(c3ccc(C(C)C)cc3)CCCC2)c1C [Compound 516]
Qualitative Label: label 0

q: Has O=C(O)CCc1ccc(OCC2=C(c3ccc(Cl)cc3)CCCC2)c2c1CCC2 [Compound 514] a recorded pEC50 greater than or equal to 6?
a: label 1

----------
biological target: Human GPR120 short form (Homo sapiens); construct: expressed in transfected cells; assay: Human GPR120 calcium flux assay, Procedure Calcium B (4200 cells/well); assay type: cell-based
Threshold-based label: EC50 under 600 nM gives YES, EC50 not under 600 nM gives NO.

Compound: O=C(O)CCc1ccc(OCC2=C(c3ccccc3)CC(F)(F)C2)cc1C(F)(F)F
Qualitative Label: YES

Compound: Cc1c(CCC(=O)O)ccc(OCC2=C(c3ccc(C(C)C)cc3)CCC2)c1C
Qualitative Label: YES

Compound: Cc1ccc(C2=C(COc3ccc(CCC(=O)O)c(F)c3F)CCC2)cc1N
Qualitative Label: NO

Compound: Cc1ccc(C2=C(COc3ccc(CCC(=O)O)cc3)CCC2)c(O)c1
Qualitative Label: NO

Compound: CC(C)(C)c1cc(OCC2=C(c3ccc(Cl)cc3)CCC2)ccc1CCC(=O)O
Qualitative Label: NO

Compound: O=C(O)CCc1ccc(OCC2=C(c3ccc(Cl)cc3F)CCC2)cc1Cl
Qualitative Label: YES

Now consider the entry below.
q: Determine if `Cc1cc(OCC2=C(C3CCCC3)CC(F)(F)C2)ccc1CCC(=O)O` shows EC50 strictly lower than 600 nM.
a: YES
